Would you kindly list Fold-difference (KD vs 39B6-A) for each of these binders?
Study Target: T1, human GARP-TGF-β1 complex (recombinant complex of human GARP and latent human TGF-β1) (human, UniProt Q14392 20-627; P01137 30-278; P01137 279-390)
T1 construct: also called huGARP-TGF-β1; hGARP-TGF-β1
T1 sequence (Q14392 20-627 limits assumed, chain 1 of 3): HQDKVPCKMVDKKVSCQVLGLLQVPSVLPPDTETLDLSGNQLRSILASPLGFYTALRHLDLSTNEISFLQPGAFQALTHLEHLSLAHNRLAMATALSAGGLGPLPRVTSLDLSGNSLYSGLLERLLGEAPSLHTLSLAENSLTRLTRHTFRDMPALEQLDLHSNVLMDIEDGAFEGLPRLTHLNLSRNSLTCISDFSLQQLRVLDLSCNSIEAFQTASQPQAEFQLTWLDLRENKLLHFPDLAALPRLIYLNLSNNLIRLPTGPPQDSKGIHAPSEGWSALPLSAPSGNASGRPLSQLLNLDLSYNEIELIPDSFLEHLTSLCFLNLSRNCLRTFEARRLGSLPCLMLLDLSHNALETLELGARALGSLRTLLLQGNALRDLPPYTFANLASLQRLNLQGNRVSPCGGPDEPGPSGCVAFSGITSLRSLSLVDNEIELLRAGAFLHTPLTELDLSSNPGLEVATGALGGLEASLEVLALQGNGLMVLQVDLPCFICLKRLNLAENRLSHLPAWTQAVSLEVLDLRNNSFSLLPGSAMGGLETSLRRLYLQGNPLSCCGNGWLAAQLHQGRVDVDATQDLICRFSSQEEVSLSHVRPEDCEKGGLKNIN
T1 sequence (P01137 30-278 limits assumed, chain 2 of 3): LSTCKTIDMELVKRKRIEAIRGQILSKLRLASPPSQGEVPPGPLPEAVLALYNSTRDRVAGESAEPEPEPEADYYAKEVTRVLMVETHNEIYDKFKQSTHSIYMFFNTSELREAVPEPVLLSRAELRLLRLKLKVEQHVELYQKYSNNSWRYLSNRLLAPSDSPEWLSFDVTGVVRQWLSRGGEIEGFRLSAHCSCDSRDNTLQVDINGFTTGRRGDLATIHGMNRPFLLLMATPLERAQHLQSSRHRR
T1 sequence (P01137 279-390 limits assumed, chain 3 of 3): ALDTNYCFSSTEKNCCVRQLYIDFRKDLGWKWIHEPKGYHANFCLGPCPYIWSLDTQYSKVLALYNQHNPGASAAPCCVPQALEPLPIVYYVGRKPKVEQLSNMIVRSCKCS
Assay Explanation: SPR Biacore T200, CM5 chip coated with GARP-TGF-β1 complex at 150 RU
Numbers only, in fold.

| Binder | Value Unit | Readout Number |
| --- | --- | --- |
| 39B6-A IgG4 S228P (antibody, V domains shown, 39B6 with G55A in HCDR2, in the human IgG4 S228P backbone; also called 39B6-ANE) VH: QVQLVQPGAEVRKPGASVKVSCKASGYRFTSYYIDWVRQAPGQGLEWMGRIDPEDAGTKYAQKFQGRVTMTADTSTSTVYVELSSLRSEDTAVYYCARNEWETVVVGDLMYEYEYWGQGTLVTVSS VL: DIQMTQSPSSLSASVGDRVTITCQASQSISSYLAWYQQKPGQAPKILIYGASRLKTGVPSRFSGSGSGTSFTLTISSLEPEDAATYYCQQYASVPVTFGQGTKVEIKR | fold | 1 |

Hi! Can you tell me Fold-difference (KD vs 39B6-A) for each of these binders?
1. 39B6-AVE IgG4 S228P (antibody, V domains shown, Variant of 39B6-A in IgG4 S228P format; Positions are Kabat-type) VH: QVQLVQPGAEVRKPGASVKVSCKASGYRFTSYYIDWVRQAPGQGLEWMGRIDPEDAGTKYAQKFQGRVTMTADTSTSTVYVELSSLRSEDTAVYYCARVEWETVVVGDLMYEYEYWGQGTLVTVSS VL: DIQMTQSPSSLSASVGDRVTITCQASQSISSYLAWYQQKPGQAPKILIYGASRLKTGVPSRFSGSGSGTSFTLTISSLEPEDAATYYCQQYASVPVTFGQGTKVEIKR
2. 39B6-AEE IgG4 S228P (antibody, V domains shown) VH: QVQLVQPGAEVRKPGASVKVSCKASGYRFTSYYIDWVRQAPGQGLEWMGRIDPEDAGTKYAQKFQGRVTMTADTSTSTVYVELSSLRSEDTAVYYCAREEWETVVVGDLMYEYEYWGQGTLVTVSS VL: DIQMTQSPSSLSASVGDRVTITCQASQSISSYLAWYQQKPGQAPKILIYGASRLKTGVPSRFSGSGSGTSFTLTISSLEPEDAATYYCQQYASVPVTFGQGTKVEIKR

Output line:
0.9
5.8
